Property: pIC50; scope: individual molecules
target_or_system: CDK2/cyclin A complex (Homo sapiens)
Construct: purchased Proqinase GmbH, Germany
test_name: CDK2/cyclin A kinase assay (as for CDK7)
Format: biochemical
experimental_context: Table 7, mean of three experiments; read-out: CDK2 kinase inhibition in vitro (IC50)
pIC50: −log10 of the molar value.

CC[C@H](CO)Nc1cc(NCc2ccccc2)n2ncc(C(C)C)c2n1 ... < 6.00
CC(C)c1cnn2c(NCc3ccccc3)cc(NCCOCCO)nc12 ... < 6.00
CC(C)c1cnn2c(NCc3ccccc3F)cc(NC(CO)CCCCCCCc3cncnc3)nc12 (centres unmarked) ... > 7.00
CC(C)c1cnn2c(NCc3ccccc3F)cc(N[C@@H](CO)CCCCCCN)nc12 ... < 6.00

API: the following record is the query input.
Entry C=C[C@H](CO)Nc1cc(NCc2ccccc2)n2ncc(C(C)C)c2n1 — recorded pIC50 = < 6.00

All values here come from patent US8067424B2.
